Test: Viability qHTS for spleen associated tyrosine kinase inhibitor (SYKi) drug resistant MV4-11 cells (AID 1963824); further: nearly all actives have a fitted effect of over 35% in size
Conditions: SYKi-resistant MV4-11 viability, CellTiter-Glo, 72 h; series mostly up to 45 µM
Results filed as inconclusive are left out. Active and inactive are the calls of the source. The call rests on the fitted dose curve; in most records, active means well fitted cell-killing curve with a large enough effect; inconclusive means small, poorly fitted or top-dose-only effect, or effect the other way; inactive means no such curve, though single readings can be large or run the other way.
Outcome (select one): active, inactive

// below: answered compounds
| Compound | Classification |
| --- | --- |
| Cc1cnc(NC(=O)Nc2cc(Br)c(C)cc2OCC2CNCCO2)cn1 (stereo not given) | active |
| CN(C)C(=O)Oc1cccc([N+](C)(C)C)c1 | inactive |
| CCN[C@@H]1C[C@H](N)[C@@H](O[C@H]2OC(CN)=CC[C@H]2N)[C@H](O)[C@H]1O[C@H]1OC[C@](C)(O)[C@H](NC)[C@H]1O | inactive |
| CCCN[C@H]1CCc2nc(N)sc2C1 | active |

Any idea what this test logged for CC1(C)CC[C@]2(C(=O)O)[C@H](O)C[C@]3(C)C(=CCC4[C@@]5(C)CC[C@H](O[C@@H]6OC[C@@H](O)[C@H](O)[C@H]6O)[C@@](C)(C(=O)O)C5CC[C@]43C)[C@@H]2C1 (stereo not given in full) ? inactive

Any idea what this test logged for `CC(/C=C/[C@]1(O)[C@@]2(C)CO[C@@]1(C)C[C@@H](O)C2)=C\C(=O)O[C@@H]1O[C@H](CO)[C@@H](O)[C@H](O)[C@H]1O` ? inactive

Any idea what this test logged for C1CCC(C(CC2CCCCN2)C2CCCCC2)CC1 (stereo not given) ? active

Any idea what this test logged for `CC[N+](CC)(CC)CCOc1cccc(OCC[N+](CC)(CC)CC)c1OCC[N+](CC)(CC)CC` ? inactive

Any idea what this test logged for C=CC(C)(O)CC/C=C(\C)C(=O)OC1C(O)C(CO)OC(OC(=O)C23CCC(C)(C)CC2C2=CCC4C5(C)CCC(OC6OC(COC7OCC(OC(C)=O)C(O)C7OC7OC(COC(C)=O)C(O)C(O)C7OC(C)=O)C(O)C(O)C6OC6OCC(O)C(O)C6O)C(C)(C)C5CCC4(C)C2(C)C(O)C3O)C1OC1OCC(OC2OCC(O)C(OC3OCC(O)C(O)C3O)C2O)C(O)C1O (stereo not given) ? active

Any idea what this test logged for C=C(C)C1CCC(C)C12CC(O)C1(C)OC1C2OC(=O)C(N)CCC(=O)O (stereo not given) ? inactive

Any idea what this test logged for `Cc1nc(N2CCN(C(=O)c3ccco3)CC2)c2c3c(sc2n1)CCCC3` ? active

Any idea what this test logged for `C=C[C@H]1[C@H](O[C@@H]2O[C@H](CO)[C@@H](O)[C@H](O)[C@H]2O)OC=C(C(=O)OC)[C@H]1C[C@@H]1c2cc(O)c(O)cc2CCN1C(C)=O` ? inactive

Any idea what this test logged for `Cc1cn([C@H]2C[C@H](O)[C@@H](CO)O2)c(=O)nc1N` ? inactive

Any idea what this test logged for `C=C(CC)C(=O)c1ccc(OCC(=O)O)c(Cl)c1Cl` ? active

Any idea what this test logged for `Cc1nc(-c2cccnc2)sc1C(=O)Nc1ccccc1-c1cn2c(CN3CCOCC3)csc2n1` ? inactive

Any idea what this test logged for C[C@@H]1O[C@@H](O[C@H]2[C@H](O[C@H]3CC[C@@]4(C)C(CC[C@]5(C)C4C=C[C@]46OC[C@@]7(CCC(C)(C)C[C@H]74)[C@@H](O)C[C@]65C)[C@]3(C)CO)O[C@H](CO)[C@@H](O)[C@@H]2O[C@@H]2O[C@H](CO)[C@@H](O[C@@H]3O[C@@H](C)[C@H](O)[C@@H](O)[C@H]3O)[C@H](O)[C@H]2O)[C@H](O)[C@H](O)[C@H]1O (stereo not given in full) ? active

Any idea what this test logged for `Fc1ccc2[nH]ccc2c1-c1nc(N2CCOCC2)c2sc(CN3CCN(CC4CC4)CC3)cc2n1` ? active

Any idea what this test logged for C/C(=C\CO)CC/C=C(\C)C(=O)O[C@H]1[C@H](OC2OC=C(C(=O)O)C3CCC(C)(O)C23)O[C@H](CO)[C@@H](O)[C@@H]1O (stereo not given in full) ? inactive
